- tgt: T1, human SEMA4D, full length, on CHO-K1 cells (CHO-K1 hSEMA4D) (human, UniProt Q92854 22-862)
- T1 construct: whole, on cells; also called human SEMA4D recombinant cells
- T1 sequence (looked up): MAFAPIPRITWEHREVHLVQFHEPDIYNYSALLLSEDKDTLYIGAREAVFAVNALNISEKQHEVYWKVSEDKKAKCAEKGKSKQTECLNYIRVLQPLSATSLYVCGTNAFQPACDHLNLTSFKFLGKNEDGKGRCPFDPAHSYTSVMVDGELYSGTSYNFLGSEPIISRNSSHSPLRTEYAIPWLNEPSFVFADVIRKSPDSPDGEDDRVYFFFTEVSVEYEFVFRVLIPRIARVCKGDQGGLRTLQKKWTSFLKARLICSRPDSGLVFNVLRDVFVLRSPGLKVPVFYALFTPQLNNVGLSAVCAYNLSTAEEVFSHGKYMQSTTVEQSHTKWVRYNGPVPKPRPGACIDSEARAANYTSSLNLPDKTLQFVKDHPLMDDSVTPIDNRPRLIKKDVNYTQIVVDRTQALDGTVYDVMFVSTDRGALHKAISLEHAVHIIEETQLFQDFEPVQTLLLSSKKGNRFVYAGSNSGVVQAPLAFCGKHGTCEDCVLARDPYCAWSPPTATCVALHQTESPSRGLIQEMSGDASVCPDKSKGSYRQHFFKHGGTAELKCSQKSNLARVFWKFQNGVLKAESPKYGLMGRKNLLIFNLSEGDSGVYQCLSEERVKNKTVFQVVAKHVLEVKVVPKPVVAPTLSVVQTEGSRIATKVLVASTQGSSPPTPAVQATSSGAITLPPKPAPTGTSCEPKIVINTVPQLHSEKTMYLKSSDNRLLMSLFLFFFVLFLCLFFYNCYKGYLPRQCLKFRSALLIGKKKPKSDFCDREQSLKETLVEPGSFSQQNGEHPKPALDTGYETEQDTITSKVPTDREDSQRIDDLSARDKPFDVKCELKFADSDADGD
- experiment_notes: competitive FACS, CHO-K1 hSEMA4D cells; unlabelled Ab 6 ug/mL first, competitor Alexa 488-VX15 0.67 ug/mL
outcome_measure: inhibition rate (%)
Give your result as the value with the unit written after it.

Record request: inhibition rate (%) value, item 37C4F7 (antibody, V domains shown, Mouse monoclonal antibody purified from hybridoma supernatant on protein A) VH: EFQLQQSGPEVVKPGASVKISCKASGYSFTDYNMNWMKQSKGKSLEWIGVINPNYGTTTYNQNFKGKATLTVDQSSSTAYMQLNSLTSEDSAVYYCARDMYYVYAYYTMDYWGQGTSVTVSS VL: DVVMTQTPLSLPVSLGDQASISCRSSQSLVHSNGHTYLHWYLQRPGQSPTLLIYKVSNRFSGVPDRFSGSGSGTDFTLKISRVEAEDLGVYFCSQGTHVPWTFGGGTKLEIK 20%

Record request: inhibition rate (%) value, item 38H2E3 (antibody, V domains shown, Mouse monoclonal antibody purified from hybridoma supernatant on protein A) VH: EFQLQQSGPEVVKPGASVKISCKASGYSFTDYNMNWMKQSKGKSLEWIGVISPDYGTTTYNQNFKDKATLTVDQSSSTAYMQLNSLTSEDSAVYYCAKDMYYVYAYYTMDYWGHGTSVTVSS VL: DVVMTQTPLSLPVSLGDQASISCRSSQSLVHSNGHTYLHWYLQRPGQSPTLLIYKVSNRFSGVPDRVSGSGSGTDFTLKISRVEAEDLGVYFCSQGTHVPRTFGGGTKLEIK 21%

Record request: inhibition rate (%) value, item 31C11G2 (antibody, V domains shown, Mouse monoclonal antibody purified from hybridoma supernatant on protein A) VH: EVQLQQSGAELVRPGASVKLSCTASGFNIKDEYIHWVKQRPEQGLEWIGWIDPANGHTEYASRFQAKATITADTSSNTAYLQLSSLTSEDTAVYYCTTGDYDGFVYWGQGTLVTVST VL: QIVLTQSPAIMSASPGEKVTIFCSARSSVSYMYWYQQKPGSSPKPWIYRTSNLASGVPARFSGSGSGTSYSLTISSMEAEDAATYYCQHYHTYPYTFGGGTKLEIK 44%

Record request: inhibition rate (%) value, item 42B7G2 (antibody, V domains shown, Mouse monoclonal antibody purified from hybridoma supernatant on protein A) VH: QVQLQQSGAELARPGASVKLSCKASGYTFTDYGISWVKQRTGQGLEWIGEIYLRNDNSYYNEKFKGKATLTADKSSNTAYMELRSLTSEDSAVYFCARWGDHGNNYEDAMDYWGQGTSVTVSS VL: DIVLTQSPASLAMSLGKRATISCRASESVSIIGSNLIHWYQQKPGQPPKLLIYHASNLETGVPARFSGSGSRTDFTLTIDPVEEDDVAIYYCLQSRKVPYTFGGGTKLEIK 15%

Record request: inhibition rate (%) value, item 32C8F10 (antibody, V domains shown, Mouse monoclonal antibody purified from hybridoma supernatant on protein A) VH: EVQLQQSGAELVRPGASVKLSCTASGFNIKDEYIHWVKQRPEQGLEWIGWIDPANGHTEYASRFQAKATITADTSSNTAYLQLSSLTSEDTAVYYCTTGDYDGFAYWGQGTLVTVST VL: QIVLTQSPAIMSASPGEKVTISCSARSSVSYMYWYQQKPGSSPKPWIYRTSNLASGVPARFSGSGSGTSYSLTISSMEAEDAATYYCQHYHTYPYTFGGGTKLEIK 42%

Record request: inhibition rate (%) value, item 37F11F9 (antibody, V domains shown, Mouse monoclonal antibody purified from hybridoma supernatant on protein A) VH: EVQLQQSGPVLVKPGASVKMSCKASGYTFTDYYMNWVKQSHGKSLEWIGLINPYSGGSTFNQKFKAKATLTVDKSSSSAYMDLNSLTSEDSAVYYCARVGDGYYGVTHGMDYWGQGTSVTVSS VL: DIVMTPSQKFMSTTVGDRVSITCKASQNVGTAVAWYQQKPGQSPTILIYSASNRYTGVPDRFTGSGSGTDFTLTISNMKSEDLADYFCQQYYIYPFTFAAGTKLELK 25%

Record request: inhibition rate (%) value, item 31G10C5 (antibody, V domains shown, Mouse monoclonal antibody purified from hybridoma supernatant on protein A) VH: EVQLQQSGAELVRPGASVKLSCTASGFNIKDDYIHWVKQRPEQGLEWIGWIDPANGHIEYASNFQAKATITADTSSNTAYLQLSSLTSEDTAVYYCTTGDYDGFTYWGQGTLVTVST VL: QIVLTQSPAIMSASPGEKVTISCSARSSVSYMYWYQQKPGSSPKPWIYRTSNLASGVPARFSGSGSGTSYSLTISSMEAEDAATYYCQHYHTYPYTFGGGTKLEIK 42%
